Reference for the values: patent US11446287B2

Molecular target: Recombinant human CBP containing the bromodomain (CBP-BD (1043-1159)) (Homo sapiens)
Construct: Recombinant human CBP bromodomain (CBP-BD (1043-1159))
Sequence (Q92793 1081-1197): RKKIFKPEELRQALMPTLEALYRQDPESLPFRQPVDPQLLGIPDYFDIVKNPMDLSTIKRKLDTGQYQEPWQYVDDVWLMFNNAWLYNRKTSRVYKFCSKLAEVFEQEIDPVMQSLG
Assay: CBP Alphascreen binding assay
Settings: read-out: CREBBP (CBP) IC50
Procedure: CBP Alphascreen Binding Assay Binding of compounds of Formula (I) with CBP was assessed using Alphascreen™ binding assay. The inhibition of the interaction between the CBP bromodomain and its acetylated target protein was measured quantitatively using recombinant CBP, an acetylated Histone 3 peptide and AlphaScreen™ technology. […] The close proximity allows the singlet oxygen produced by laser excitation of the donor beads to reach the acceptor beads and generate a luminescence signal. […]
MEASURED_ATTRIBUTE: IC50

1. CCOc1cc(C(=O)O)cc(OCC)c1-n1cc(-c2cnn(C)c2)c2ncc(-c3c(C)noc3C)cc21 :: 0.1 to 1000 nM
2. Cc1noc(C)c1-c1cnc2c(c1)c(-c1ccc(C(=O)O)cc1C1CC1)cn2[C@@H](C)c1ccccn1 :: 0.1 to 1000 nM
3. Cc1noc(C)c1-c1cnc2c(-c3cn(C)nc3C3CC3)c(C(F)(F)F)n([C@@H](C)c3ccccn3)c2c1 :: 0.1 to 1000 nM
4. CCOc1cc(C(=O)O)nc(OCC)c1-c1cn(C2CCOCC2)c2ncc(-c3c(C)noc3C)cc12 :: 0.1 to 1000 nM
5. CCOc1cc(C(=O)O)cc(OCC)c1-n1cc(-c2cnn(CS(C)(=O)=O)c2)c2ncc(-c3c(C)noc3C)cc21 :: 0.1 to 1000 nM
6. CCCn1nc(C(=O)O)c(NCC)c1-c1cn(-c2ccc(F)cc2F)c2ncc(-c3c(C)noc3C)cc12 :: 0.1 to 1000 nM
7. Cc1noc(C)c1-c1cnc2c(c1)c(-c1ccc(C(=O)O)cc1OC(F)(F)F)cn2-c1cnn(C)c1 :: 0.1 to 1000 nM

* * *

target: Recombinant human BRD4 containing dual bromodomains (BRD4-BD12 (1-477)) (Homo sapiens, UniProt O60885); construct: Recombinant human BRD4 containing dual bromodomains (BRD4-BD12 (1-477)); made in house; host or cells: E. coli BL21-CodonPlus (DE3), modified pET vector; test: BRD4 Alphascreen binding assay
pIC50: −log10 of the molar value.
MEASURED_ATTRIBUTE: pIC50

1. Cc1noc(C)c1-c1cnc2c(c1)c(-c1ccc(C(=O)O)cc1OC(F)(F)F)cn2-c1ccccc1F :: 5.10 to 6.00
2. Cc1nnn(C)c1-c1cnc2c(c1)c(-c1ccc(C(=O)O)cc1OC(F)(F)F)cn2CC/C=C/C1CC1 :: 3.00 to 5.10
3. Cc1nn(CC(C)(C)O)cc1-n1cc(-c2ccc(C(=O)O)cc2OC(F)(F)F)c2cc(-c3c(C)noc3C)cnc21 :: 5.10 to 6.00
4. Cc1noc(C)c1-c1cnc2c(c1)c(-c1ccc(C(=O)O)cc1OC(F)(F)F)cn2-c1ccncc1Cl :: 3.00 to 5.10

* * *

Each entry below carries its recorded pIC50.
target: Recombinant human BRD4 containing dual bromodomains (BRD4-BD12 (1-477)) (Homo sapiens, UniProt O60885); construct: Recombinant human BRD4 containing dual bromodomains (BRD4-BD12 (1-477)); test: BRD4 Alphascreen binding assay
pIC50: −log10 of the molar value.
MEASURED_ATTRIBUTE: pIC50

1. Cc1noc(C)c1-c1cnc2c(c1)c(-c1ccc(C(=O)O)cc1OC(F)(F)F)cn2C(CC#N)C1CC1 (stereo not shown) :: 3.00 to 5.10
2. Cc1noc(C)c1-c1cnc2c(c1)c(-c1ccc(C(=O)O)cc1OC(F)(F)F)cn2-c1cccnc1 :: 5.10 to 6.00
3. Cc1noc(C)c1-c1cnc2c(c1)c(-c1ccnc(C(=O)O)c1C)cn2C(C1CC1)C1CC1 :: 6.00 to 10.00
4. Cc1noc(C)c1-c1cnc2c(c1)c(-c1ccc(C(=O)O)cc1OC(C)C)cn2[C@H]1CCOC1 :: 3.00 to 5.10
5. Cc1noc(C)c1-c1cnc2c(c1)c(-c1ccc(C(=O)O)cc1OC(F)(F)F)cn2-c1ccsc1 :: 6.00 to 10.00
6. Cc1noc(C)c1-c1cnc2c(c1)c(-c1cccc(C(=O)O)c1)cn2CC1CC1 :: 3.00 to 5.10
7. Cc1noc(C)c1-c1cnc2c(CC3CCC3)cn(-c3ccc(S(C)(=O)=O)c(F)c3)c2c1 :: 3.00 to 5.10
8. Cc1ccncc1-n1cc(-c2ccc(C(=O)O)cc2OC(F)(F)F)c2cc(-c3c(C)noc3C)cnc21 :: 3.00 to 5.10
9. Cc1noc(C)c1-c1cnc2c(-c3cc(F)cc(C(=O)O)c3)c(C(F)(F)F)n([C@@H](C)c3ccccn3)c2c1 :: 3.00 to 5.10
10. Cc1noc(C)c1-c1cnc2c(c1)c(-c1cnn(CC(=O)O)c1)cn2-c1ncccc1C#CC1CC1 :: 3.00 to 5.10
11. Cc1noc(C)c1-c1cnc2c(c1)c(-c1ccc(C(=O)O)cc1OC(F)(F)F)cn2-c1cnc(N)nc1 :: 5.10 to 6.00
12. Cc1noc(C)c1-c1cnc2c(c1)c(-c1ccnc(C(=O)O)n1)cn2C(C)c1ccccn1 (stereo not shown) :: 3.00 to 5.10
13. Cc1noc(C)c1-c1cnc2c(CC3CCC3)cn(-c3c(Cl)cc(C(=O)O)cc3Cl)c2c1 :: 3.00 to 5.10
14. Cc1noc(C)c1-c1cnc2c(c1)c(-c1cccc(C(=O)O)c1)cn2C(c1ccccn1)C1CCCC1 (stereo not shown) :: 5.10 to 6.00
15. CCOc1cc(C(=O)O)ncc1-c1cn(C2CCOCC2)c2ncc(-c3c(C)noc3C)cc12 :: 6.00 to 10.00
16. Cc1noc(C)c1-c1cnc2c(c1)c(-c1c(Cl)cc(C(=O)O)cc1OC(C)C)cn2C1(C)CCOC1 (stereo not shown) :: 3.00 to 5.10
